procedure-summary: Pharmacokinetic evaluation in C57BL/6 mice, brain tissues and plasma
Assay type: in vivo
experimental-setup: male, C57BL/6, mouse, oral, 5 mg/kg, plasma, read-out: AUC0-last Plasma
endpoint-name: AUC(0-t)

(Q) Any idea what AUC(0-t) was measured for COc1nc(N2CC3(CCC3)C2)ccc1Nc1ncc(Cl)c(Nc2ccccc2P(C)(C)=O)n1 ?
(A) 4.39 µM·h

(Q) Same read-out for COc1nc(N2CC3(C2)CC3(F)F)ccc1Nc1ncc(Cl)c(Nc2ccccc2P(C)(C)=O)n1 ?
(A) 4.02 µM·h

(Q) Same read-out for COc1nc(N2CC3(CCOC3)C2)ccc1Nc1ncc(Cl)c(Nc2ccccc2P(C)(C)=O)n1 ?
(A) 2.48 µM·h

(Q) Same read-out for COc1nc(N2CC3(CCOCC3)C2)ccc1Nc1ncc(Cl)c(Nc2ccccc2P(C)(C)=O)n1 ?
(A) 1.39 µM·h

(Q) Same read-out for COc1nc(N2CC3(C2)CC(F)(F)C3)ccc1Nc1ncc(Cl)c(Nc2ccccc2P(C)(C)=O)n1 ?
(A) 2.25 µM·h

(Q) Same read-out for COc1nc(N2CC3(COC3)C2)ccc1Nc1ncc(Cl)c(Nc2ccccc2P(C)(C)=O)n1 ?
(A) 3.46 µM·h

(Q) Same read-out for COc1nc(N2CC3(CC(OC)C3)C2)ccc1Nc1ncc(Cl)c(Nc2ccccc2P(C)(C)=O)n1 ?
(A) 1.45 µM·h

* * *

assayed-target: LRRK2 (pSer935) (Homo sapiens)
Sequence (Q5S007 whole entry): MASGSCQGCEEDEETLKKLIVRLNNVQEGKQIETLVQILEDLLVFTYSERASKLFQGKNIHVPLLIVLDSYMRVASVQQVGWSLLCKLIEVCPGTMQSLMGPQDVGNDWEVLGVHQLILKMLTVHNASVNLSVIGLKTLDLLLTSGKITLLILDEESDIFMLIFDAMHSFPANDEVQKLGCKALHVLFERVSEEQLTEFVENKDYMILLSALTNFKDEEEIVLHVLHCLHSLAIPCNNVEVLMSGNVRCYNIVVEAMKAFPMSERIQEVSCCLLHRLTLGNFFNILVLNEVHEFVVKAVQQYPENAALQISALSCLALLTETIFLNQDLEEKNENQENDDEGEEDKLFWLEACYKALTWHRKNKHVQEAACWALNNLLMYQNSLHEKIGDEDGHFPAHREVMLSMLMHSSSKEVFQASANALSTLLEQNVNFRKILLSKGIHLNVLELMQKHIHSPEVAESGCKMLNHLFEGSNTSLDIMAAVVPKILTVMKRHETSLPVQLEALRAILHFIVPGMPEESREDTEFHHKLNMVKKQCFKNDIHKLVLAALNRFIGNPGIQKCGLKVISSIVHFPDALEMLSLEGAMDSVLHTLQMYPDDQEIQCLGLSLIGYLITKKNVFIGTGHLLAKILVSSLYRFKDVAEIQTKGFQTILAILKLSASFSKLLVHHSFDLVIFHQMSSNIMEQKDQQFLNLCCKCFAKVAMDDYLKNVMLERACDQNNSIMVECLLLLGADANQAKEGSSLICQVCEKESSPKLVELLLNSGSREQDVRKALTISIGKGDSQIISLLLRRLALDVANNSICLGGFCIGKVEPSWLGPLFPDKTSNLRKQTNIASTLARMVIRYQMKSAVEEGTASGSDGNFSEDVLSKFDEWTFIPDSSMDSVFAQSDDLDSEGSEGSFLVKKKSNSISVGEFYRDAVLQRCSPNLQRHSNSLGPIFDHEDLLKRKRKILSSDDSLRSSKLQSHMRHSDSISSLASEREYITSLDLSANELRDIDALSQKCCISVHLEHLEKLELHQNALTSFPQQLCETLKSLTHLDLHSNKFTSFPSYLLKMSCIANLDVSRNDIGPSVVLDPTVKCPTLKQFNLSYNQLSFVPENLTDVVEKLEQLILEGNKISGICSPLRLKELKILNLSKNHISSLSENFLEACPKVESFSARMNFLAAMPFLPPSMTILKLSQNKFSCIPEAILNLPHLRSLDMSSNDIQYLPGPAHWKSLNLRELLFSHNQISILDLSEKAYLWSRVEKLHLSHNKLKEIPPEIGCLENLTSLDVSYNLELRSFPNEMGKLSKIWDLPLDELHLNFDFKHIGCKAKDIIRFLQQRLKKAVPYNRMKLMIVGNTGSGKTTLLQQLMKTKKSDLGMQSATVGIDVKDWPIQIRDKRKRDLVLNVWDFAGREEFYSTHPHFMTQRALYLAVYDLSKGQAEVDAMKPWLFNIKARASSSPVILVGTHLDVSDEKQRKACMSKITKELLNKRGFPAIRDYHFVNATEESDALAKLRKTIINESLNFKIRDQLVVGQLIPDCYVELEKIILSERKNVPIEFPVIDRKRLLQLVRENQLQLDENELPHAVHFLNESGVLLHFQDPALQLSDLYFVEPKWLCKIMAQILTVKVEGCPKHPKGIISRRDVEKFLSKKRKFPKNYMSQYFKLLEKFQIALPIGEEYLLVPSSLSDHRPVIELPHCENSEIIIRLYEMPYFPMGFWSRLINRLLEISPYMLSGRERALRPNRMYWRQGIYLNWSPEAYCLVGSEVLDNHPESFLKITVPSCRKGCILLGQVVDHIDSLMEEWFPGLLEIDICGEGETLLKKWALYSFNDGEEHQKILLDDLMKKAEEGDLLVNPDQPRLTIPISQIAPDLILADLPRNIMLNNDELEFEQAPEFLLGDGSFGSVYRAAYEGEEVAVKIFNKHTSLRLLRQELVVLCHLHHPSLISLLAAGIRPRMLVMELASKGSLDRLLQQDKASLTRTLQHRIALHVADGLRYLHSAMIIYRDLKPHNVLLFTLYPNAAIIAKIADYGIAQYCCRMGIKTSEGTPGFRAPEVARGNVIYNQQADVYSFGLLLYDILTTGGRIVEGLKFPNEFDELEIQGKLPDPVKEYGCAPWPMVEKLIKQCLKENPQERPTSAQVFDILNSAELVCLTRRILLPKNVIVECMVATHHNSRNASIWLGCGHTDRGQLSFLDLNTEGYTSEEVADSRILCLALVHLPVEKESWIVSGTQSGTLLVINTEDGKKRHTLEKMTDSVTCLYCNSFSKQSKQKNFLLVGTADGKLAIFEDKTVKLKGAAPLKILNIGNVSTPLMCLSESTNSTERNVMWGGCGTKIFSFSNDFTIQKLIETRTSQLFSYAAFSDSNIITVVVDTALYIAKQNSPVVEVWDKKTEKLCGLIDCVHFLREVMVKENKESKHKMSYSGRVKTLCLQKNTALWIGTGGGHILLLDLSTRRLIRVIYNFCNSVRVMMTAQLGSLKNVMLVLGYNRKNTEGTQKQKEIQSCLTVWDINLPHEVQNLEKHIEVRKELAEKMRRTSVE
procedure-summary: In vitro evaluation of inhibitory activity for LRRK2 cell (pSer935), 293T cells transfected with pcmv-flag-lrrk2, MSD
Class definitions on IC50: low value (below 4 nM), medium value (4 nM to below 10 nM), high value (10 nM or more)

(Q) Classify this compound: COc1ncc(N2CC3(COC3)C2)cc1Nc1ncc(Cl)c(Nc2ccccc2P(C)(C)=O)n1
(A) high value

(Q) Same read-out for COc1c(Nc2ncc(Cl)c(Nc3ccccc3P(C)(C)=O)n2)ccnc1N1CC2(COC2)C1 ?
(A) high value

(Q) Same read-out for COc1nc(N2CC3(CCCOC3)C2)ccc1Nc1ncc(Cl)c(Nc2ccccc2P(C)(C)=O)n1 ?
(A) low value

(Q) Same read-out for COc1c(Nc2ncc(Cl)c(Nc3ccccc3P(C)(C)=O)n2)ccnc1N1CC2(CCOC2)C1 ?
(A) high value

(Q) Same read-out for COc1nc(N2CC3(CCCCO3)C2)ccc1Nc1ncc(Cl)c(Nc2ccccc2P(C)(C)=O)n1 ?
(A) high value

(Q) Same read-out for COc1nc(N2CC3(COC3)C2)ccc1Nc1ncc(Cl)c(Nc2ccccc2P(C)(C)=O)n1 ?
(A) low value

(Q) Same read-out for COc1nc(N2CC3(CCOCC3)C2)ccc1Nc1ncc(Cl)c(Nc2ccccc2P(C)(C)=O)n1 ?
(A) medium value

(Q) Same read-out for COc1nc(N2CC3(CC(OC)C3)C2)ccc1Nc1ncc(Cl)c(Nc2ccccc2P(C)(C)=O)n1 ?
(A) medium value

(Q) Same read-out for COc1nc(N2CC3(CCOC3)C2)ccc1Nc1ncc(Cl)c(Nc2ccccc2P(C)(C)=O)n1 ?
(A) medium value

* * *

Kindly supply the reported Kp values for the records listed here.
procedure-summary: Pharmacokinetic evaluation in C57BL/6 mice, brain tissues and plasma
Assay type: in vivo
experimental-setup: male, C57BL/6, mouse, brain/plasma, oral, 5 mg/kg, read-out: drug concentration ratio between brain tissues and plasma (B/P)
Protocol: Experimental purpose: to study pharmacokinetics of the compounds in vivo in C57BL/6 mice—drug concentration ratio between brain tissues and plasma Experimental materials: C57BL/6 mice (male, 8 weeks old, weight: 25 g-30 g) Assay Pharmacokinetic Features of Glires after they are Orally Administered the Compounds According to Standard Schemes. In the experiment, the candidate compounds are prepared into 1 mg/mL mixed suspension, and mice are orally administered once. […]
Answer with the value's number alone.

(Q) Any idea what Kp was measured for COc1nc(N2CC3(C2)CC3(F)F)ccc1Nc1ncc(Cl)c(Nc2ccccc2P(C)(C)=O)n1 ?
(A) 0.54

(Q) Same read-out for COc1nc(N2CC3(C2)CC(F)(F)C3)ccc1Nc1ncc(Cl)c(Nc2ccccc2P(C)(C)=O)n1 ?
(A) 0.52

(Q) Same read-out for COc1nc(N2CC3(CCOCC3)C2)ccc1Nc1ncc(Cl)c(Nc2ccccc2P(C)(C)=O)n1 ?
(A) 0.14

(Q) Same read-out for COc1nc(N2CC3(CC(OC)C3)C2)ccc1Nc1ncc(Cl)c(Nc2ccccc2P(C)(C)=O)n1 ?
(A) 0.41

* * *

procedure-summary: Pharmacokinetic evaluation in C57BL/6 mice, brain tissues and plasma
Type: in vivo
experimental-setup: male, C57BL/6, mouse, oral, 5 mg/kg, brain tissues, read-out: AUC0-last Brain Tissues
endpoint-name: log10(AUC(0-t)) (log10 of the value in µM·h)
Hi team, quick reminder: these entries are log10 of AUC(0-t) (µM·h).

(Q) Any idea what log10(AUC(0-t)) was measured for COc1nc(N2CC3(C2)CC3(F)F)ccc1Nc1ncc(Cl)c(Nc2ccccc2P(C)(C)=O)n1 ?
(A) 0.33

(Q) Same read-out for COc1nc(N2CC3(CC(OC)C3)C2)ccc1Nc1ncc(Cl)c(Nc2ccccc2P(C)(C)=O)n1 ?
(A) -0.22

(Q) Same read-out for COc1nc(N2CC3(CCOCC3)C2)ccc1Nc1ncc(Cl)c(Nc2ccccc2P(C)(C)=O)n1 ?
(A) -0.72

(Q) Same read-out for COc1nc(N2CC3(CCC3)C2)ccc1Nc1ncc(Cl)c(Nc2ccccc2P(C)(C)=O)n1 ?
(A) 0.62

(Q) Same read-out for COc1nc(N2CC3(COC3)C2)ccc1Nc1ncc(Cl)c(Nc2ccccc2P(C)(C)=O)n1 ?
(A) -0.32

(Q) Same read-out for COc1nc(N2CC3(CCOC3)C2)ccc1Nc1ncc(Cl)c(Nc2ccccc2P(C)(C)=O)n1 ?
(A) -0.31

(Q) Same read-out for COc1nc(N2CC3(C2)CC(F)(F)C3)ccc1Nc1ncc(Cl)c(Nc2ccccc2P(C)(C)=O)n1 ?
(A) 0.06

* * *

procedure-summary: Pharmacokinetic evaluation in C57BL/6 mice, brain tissues and plasma
Assay type: in vivo
experimental-setup: male, C57BL/6, mouse, oral, 5 mg/kg, plasma
Kindly supply the reported Cmax values for the records listed here.

(Q) Any idea what Cmax was measured for COc1nc(N2CC3(C2)CC(F)(F)C3)ccc1Nc1ncc(Cl)c(Nc2ccccc2P(C)(C)=O)n1 ?
(A) 1200 nM

(Q) Same read-out for COc1nc(N2CC3(CCC3)C2)ccc1Nc1ncc(Cl)c(Nc2ccccc2P(C)(C)=O)n1 ?
(A) 1650 nM

(Q) Same read-out for COc1nc(N2CC3(COC3)C2)ccc1Nc1ncc(Cl)c(Nc2ccccc2P(C)(C)=O)n1 ?
(A) 3630 nM

(Q) Same read-out for COc1nc(N2CC3(CCOC3)C2)ccc1Nc1ncc(Cl)c(Nc2ccccc2P(C)(C)=O)n1 ?
(A) 2600 nM

(Q) Same read-out for COc1nc(N2CC3(CC(OC)C3)C2)ccc1Nc1ncc(Cl)c(Nc2ccccc2P(C)(C)=O)n1 ?
(A) 1560 nM

(Q) Same read-out for COc1nc(N2CC3(C2)CC3(F)F)ccc1Nc1ncc(Cl)c(Nc2ccccc2P(C)(C)=O)n1 ?
(A) 2150 nM

(Q) Same read-out for COc1nc(N2CC3(CCOCC3)C2)ccc1Nc1ncc(Cl)c(Nc2ccccc2P(C)(C)=O)n1 ?
(A) 1180 nM

* * *

Kindly supply the reported pIC50 values for the records listed here.
assayed-target: LRRK2 full-length human recombinant protein (Homo sapiens)
Construct: express LRRK2 full-length human recombinant protein in Sf9 cells of insects; GST
Sequence (Q5S007 whole entry): as above
procedure-summary: In vitro evaluation of LRRK2 kinase inhibitory activity (HTRF / TR-FRET, LRRKtide)
experimental-setup: 57 μM ATP, 0.4 uM Fluorescein-ERM (LRRKtide) peptide
Note: pIC50 values are expressed as the negative base-10 logarithm of concentration in M.

(Q) Any idea what pIC50 was measured for COc1ncc(N2CCC3(CCOCC3)C2)cc1Nc1ncc(Cl)c(Nc2ccccc2P(C)(C)=O)n1 ?
(A) 7.56

(Q) Same read-out for COc1nc(N2CCC3(CCCO3)C2)ccc1Nc1ncc(Cl)c(Nc2ccccc2P(C)(C)=O)n1 (stereo not shown) ?
(A) 8.09

(Q) Same read-out for COc1nc(N2CC3(CCCCO3)C2)ccc1Nc1ncc(Cl)c(Nc2ccccc2P(C)(C)=O)n1 ?
(A) 8.07

(Q) Same read-out for COc1nc(N2CCC3(CCOC3)C2)ccc1Nc1ncc(Cl)c(Nc2ccccc2P(C)(C)=O)n1 (stereo not shown) ?
(A) 7.68

(Q) Same read-out for COc1ncc(N2CC3(CCOC3)C2)cc1Nc1ncc(Cl)c(Nc2ccccc2P(C)(C)=O)n1 ?
(A) 7.97

(Q) Same read-out for COc1nc(N2CC3(CCCOC3)C2)ccc1Nc1ncc(Cl)c(Nc2ccccc2P(C)(C)=O)n1 ?
(A) 8.54

(Q) Same read-out for COc1nc(N2CCC3(CCCOC3)C2)ccc1Nc1ncc(Cl)c(Nc2ccccc2P(C)(C)=O)n1 (stereo not shown) ?
(A) 7.61

(Q) Same read-out for COc1nc(N2CCC3(CCOCC3)CC2)ccc1Nc1ncc(Cl)c(Nc2ccccc2P(C)(C)=O)n1 ?
(A) 8.14

(Q) Same read-out for COc1nc(N2CC3(C2)CC3(F)F)ccc1Nc1ncc(Cl)c(Nc2ccccc2P(C)(C)=O)n1 ?
(A) 8.13

(Q) Same read-out for COc1c(Nc2ncc(Cl)c(Nc3ccccc3P(C)(C)=O)n2)ccnc1N1CC2(COC2)C1 ?
(A) 8.59

(Q) Same read-out for COc1nc(N2CC3(C2)CC(F)(F)C3)ccc1Nc1ncc(Cl)c(Nc2ccccc2P(C)(C)=O)n1 ?
(A) 8.04

(Q) Same read-out for COc1nc(N2CCC3(CCCCO3)C2)ccc1Nc1ncc(Cl)c(Nc2ccccc2P(C)(C)=O)n1 (stereo not shown) ?
(A) 7.47

(Q) Same read-out for COc1nc(N2CCC3(CCOCC3)C2)ccc1Nc1ncc(Cl)c(Nc2ccccc2P(C)(C)=O)n1 ?
(A) 7.67

(Q) Same read-out for COc1nc(N2CC3(CCOC3)C2)ccc1Nc1ncc(Cl)c(Nc2ccccc2P(C)(C)=O)n1 ?
(A) 8.11

(Q) Same read-out for COc1nc(N2CC3(CCC3)C2)ccc1Nc1ncc(Cl)c(Nc2ccccc2P(C)(C)=O)n1 ?
(A) 7.82

(Q) Same read-out for COc1c(Nc2ncc(Cl)c(Nc3ccccc3P(C)(C)=O)n2)ccnc1N1CC2(CCOC2)C1 ?
(A) 8.80

(Q) Same read-out for COc1ncc(N2CC3(CCOCC3)C2)cc1Nc1ncc(Cl)c(Nc2ccccc2P(C)(C)=O)n1 ?
(A) 7.92

(Q) Same read-out for COc1nc(N2CC3(CC(OC)C3)C2)ccc1Nc1ncc(Cl)c(Nc2ccccc2P(C)(C)=O)n1 ?
(A) 8.28

(Q) Same read-out for COc1c(Nc2ncc(Cl)c(Nc3ccccc3P(C)(C)=O)n2)ccnc1N1CC2(CCC2)C1 ?
(A) 7.43

(Q) Same read-out for COc1nc(N2CC3(COC3)C2)ccc1Nc1ncc(Cl)c(Nc2ccccc2P(C)(C)=O)n1 ?
(A) 8.80

(Q) Same read-out for COc1nc(N2CC3(CCOCC3)C2)ccc1Nc1ncc(Cl)c(Nc2ccccc2P(C)(C)=O)n1 ?
(A) 8.21

(Q) Same read-out for COc1ncc(N2CC3(COC3)C2)cc1Nc1ncc(Cl)c(Nc2ccccc2P(C)(C)=O)n1 ?
(A) 8.34
